conditions: 323.15 K; 101.33 kPa; Liquid; Falling or rolling sphere viscometry
Consider the cut-off 40 mPa·s. If the recorded viscosity is strictly smaller, the label is Yes; if not, the label is No.

>>> category_label("CC(=O)OCC[N+](C)(C)C.O=S(=O)([N-]S(=O)(=O)C(F)(F)F)C(F)(F)F")
"No"

Exam item: Say whether its viscosity is strictly beneath 40 mPa·s. Entry: CCC[N+](C)(C)CCO.O=S(=O)([N-]S(=O)(=O)C(F)(F)F)C(F)(F)F
Marked response: Yes

Exam item: Say whether its viscosity is strictly beneath 40 mPa·s. Entry: CCCCCC[n+]1cccc(C)c1.O=S(=O)([N-]S(=O)(=O)C(F)(F)F)C(F)(F)F
Marked response: Yes

Exam item: Say whether its viscosity is strictly beneath 40 mPa·s. Entry: CCCC[N+](C)(C)C.O=S(=O)([N-]S(=O)(=O)C(F)(F)F)C(F)(F)F [butyltrimethylammonium bis(trifluoromethylsulfonyl)imide]
Marked response: Yes

Exam item: Say whether its viscosity is strictly beneath 40 mPa·s. Entry: O=S(=O)([N-]S(=O)(=O)C(F)(F)F)C(F)(F)F.OCCC[n+]1ccccc1
Marked response: Yes

Exam item: Say whether its viscosity is strictly beneath 40 mPa·s. Entry: CCCC[N+]1(C)CCCC1.O=S(=O)([N-]S(=O)(=O)C(F)(F)F)C(F)(F)F
Marked response: Yes

# credit: the NIST ThermoML archive (doi:10.1021/je2006743)
